For each of the compounds below, state its MBEC.
Tested on: Staphylococcus aureus
PROCEDURE TEXT: Antimicrobial activity against methicillin-susceptible Staphylococcus aureus ATCC 29213 grown as biofilms by microdilution method
Format: functional

# COMPOUND, MEASURED VALUE
data = [
    ("CN[C@H](CC(C)C)C(=O)N[C@H]1C(=O)N[C@@H](CC(N)=O)C(=O)N[C@H]2C(=O)N[C@H]3C(=O)N[C@H](C(=O)N[C@H](C(=O)O)c4cc(O)cc(O)c4-c4cc3ccc4O)[C@H](O)c3ccc(c(Cl)c3)Oc3cc2cc(c3O[C@@H]2O[C@H](CO)[C@@H](O)[C@H](O)[C@H]2O[C@H]2C[C@](C)(N)[C@H](O)[C@H](C)O2)Oc2ccc(cc2Cl)[C@H]1O [VANCOMYCIN]", ">400 µg/mL"),
]

Switching to the query record.
Which MBEC is reported for this compound? C/C(=C\C(=O)OCCCCCCCCC(=O)O)C[C@@H]1OC[C@H](C[C@@H]2O[C@H]2[C@@H](C)[C@H](C)O)[C@@H](O)[C@H]1O [MUPIROCIN] >400 µg/mL
